assay: NCI Yeast Anticancer Drug Screen. Data for the bub3 strain (AID 167); conditions: S. cerevisiae bub3 mutant strain, at 50.0 µM, hits give high values
The panel holds about 79,000 compounds, 15% with a hit somewhere; the sample as a whole holds those more often.
Give growth inhibition for every item shown.
Give just the number in %; leave the unit off.

Note to self: growth inhibition recorded for CSC(SC)=C(C#N)C(=O)Nc1ccc(C)cc1 was 89.7

Summary for this compound, COc1ccc(-n2c(=O)c3[nH]c(=S)[nH]c3n(-c3ccc(OC)cc3)c2=S)cc1 : growth inhibition is -41.8

The compound identified as O=C1N[C@H]2[C@H](CS[C@H]2CCCCC(=O)N(CCP(c2ccccc2)c2ccccc2)CCP(c2ccccc2)c2ccccc2)N1 registered its growth inhibition at 7.8

For Clc1ccc2c(NCCCCCCNc3ccnc4cc(Cl)ccc34)ccnc2c1 the compound record lists growth inhibition as 81.1

Notebook: [N-]=[N+]=Nc1ccc(SSCCC(=O)ON2C(=O)CCC2=O)cc1 , growth inhibition read as 98.7

###

experiment: NCI Yeast Anticancer Drug Screen. Data for the cln2 rad14 strain (AID 165);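 further: 0% = growth equal to vehicle treated cultures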; details: S. cerevisiae cln2 rad14 strain, at 50.0 µM, hits give high values
About 79,000 compounds went through this panel and 15% of them were active in at least one assay; those are over-represented in the sample as a whole.
Classify as follows. Reported growth inhibition greater than or equal to 40%: Criterion met. Reported growth inhibition below: Criterion not met.

Exercise: Quick check: does CCOC(=N)CCCSSc1ccc(N=[N+]=[N-])cc1 have growth inhibition greater than or equal to 40%?
Solution: Criterion met

Exercise: Test whether the compound COC1/C=C/OC2(C)Oc3c(C)c(OC(C)=O)c4c(c3C2=O)C(=O)C=C(NC(=O)/C(C)=C\C=C\C(C)C(O)C(C)C(O)C(C)C(OC(C)=O)C1C)C4=O (stereo not given) records growth inhibition of 40% or higher.
Solution: Criterion met

Exercise: Kindly determine if growth inhibition recorded for CCN(CC)CCOC(=O)CCN1CC2CCC(CC2)C1 is above or exactly 40%.
Solution: Criterion not met

Exercise: Please tell me: is the compound Cc1c2ccccc2c(C)c2c1ccc1ccccc12 at or over 40% in terms of growth inhibition?
Solution: Criterion met

Exercise: growth inhibition >= 40% for CCOC(=O)/C=C(\C)Sc1cc(O)c2ccccc2c1O ?
Solution: Criterion not met

Exercise: For this compound, is measured growth inhibition 40% or higher? Oc1c(Br)c(Br)c(O)c(Br)c1Br
Solution: Criterion not met

Exercise: Please check the record c1ccc2c(c1)Nc1cc3ccccc3cc1N2 and state if its growth inhibition is at or above 40%.
Solution: Criterion not met

Exercise: Entry Cc1cccc(C)c1N1C(=O)C(=O)C(c2nc3ccccc3s2)/C(=N/NC(=O)c2ccccc2O)C1=O (stereo not given) : is its growth inhibition no less than 40%?
Solution: Criterion met

Exercise: growth inhibition >= 40% for CC(C)c1ccc2nc3ccc(C(=O)NCCN4CCN(c5ccccc5)CC4)cn3c(=O)c2c1 ?
Solution: Criterion not met

Exercise: Is reported growth inhibition greater than or equal to 40% here: O=C(NCCc1c(-c2ccccc2)[nH]c2ccccc12)C(F)(F)F
Solution: Criterion met

###

assay: NCI Yeast Anticancer Drug Screen. Data for the sgs1 mgt1 strain (AID 161);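 further: 0% = growth of cultures given vehicle only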; conditions: S. cerevisiae sgs1 mgt1 strain, at 50.0 µM, hits give high values
The panel holds about 79,000 compounds, 15% with a hit somewhere; the sample as a whole holds those more often.
Would you kindly list growth inhibition for each of these compounds?
All answers are understood in %, so give the number only.

Lab note: CCOC(=O)CCC(NC(=O)c1ccc(NC(OC)c2nc3cc(C(F)(F)F)ccc3nc2-c2ccccc2)cc1)C(=O)OCC (centres undefined) gave growth inhibition of 93.8

Looking up O=C1C2(Cl)C(Cl)=C(Cl)C1(Cl)C1(Cl)C(Cl)=C(Cl)C(=O)C21Cl (centres undefined) , I see its growth inhibition listed as 39.8

CC1(COc2ccccc2OCC2(C)CO2)CO1 (centres undefined) yielded growth inhibition of 7.75

growth inhibition recorded for this compound, CCCCc1ccc2nc(C)cc(N/N=C/c3ccc4c(c3)OCO4)c2c1 , is 73.5

Value of growth inhibition reported for the compound Cc1ccc(/C=C2\CCCc3ccccc3C2=O)cc1 is 55.8

Looking up O=Cc1cc(S(=O)(=O)c2ccc(O)c(C=O)c2)ccc1O , I see its growth inhibition listed as 98.8

Recorded result, CC(C)SCC1CO1 (centres undefined) , growth inhibition: 18.1

Entry under test: Oc1c(I)cc(Cl)c2cccnc12 . Its growth inhibition was 97.8

Value of growth inhibition reported for the compound O=c1c(NO)c([N+](=O)[O-])cnn1-c1ccccc1 is 29.4

Looking up COC(=O)c1nc2ccc([N+](=O)[O-])cc2n1O , I found its growth inhibition recorded as 2.95

growth inhibition reported for this compound Cc1ccc(C)c(NC(=O)CC2SC(=Nc3ccccc3Cl)NC2=O)c1 (centres undefined) : 65.3

Reported growth inhibition of c1cc(NC2CCCCC2)ccc1CN1CCOCC1 : 70

The reported value for Nc1ccc(-c2nc3ccccc3s2)cc1Br in terms of growth inhibition is 21.1

Record CC#CS(=O)(=O)c1ccccc1 , field growth inhibition: 80.7

In plain terms, CC(C)(CN1CCCCC1)C(=O)/C=C/c1ccc(Cl)c(Cl)c1 has a documented growth inhibition of 93.2

compound COC1(CO)C(=O)N(C)CC(=O)N1C (centres undefined) , growth inhibition observed: 99.3

According to the records, this compound CN(C)c1ccc(/C=C\c2c3ccccc3cc[n+]2[O-])cc1 displays growth inhibition of 17.9

Field growth inhibition (entry Cc1cc(NS(=O)(=O)c2ccc(Nc3c4ccccc4nc4c(C(=O)NC(CO)(CO)CO)cccc34)cc2)no1 ) reads -1.6

growth inhibition reported for this compound O=C1Sc2sc(=S)sc2SC1c1ccccc1 (centres undefined) : 82.2

// growth inhibition lookup, compound = COC1(OC)OC2=C(OC1(OC)OC)c1ccccc1C2=O , result: -11.8

The recorded growth inhibition for entry O=C(O)CCCCC1CCCCC1.[Cu+2] equals 36

// Cc1nc(N)sc1N=Nc1cccc(Cl)c1Cl : growth inhibition value = 66.2

What the record says about C[C@]12CC[C@H](O)C[C@@H]1CC[C@@H]1[C@@H]2C(=O)C[C@]2(C)C3=CC(=O)O[C@H]3C[C@@H]12 : growth inhibition is 94

Field growth inhibition (entry CC(=O)C1C(S)CC2C3CC=C4CC(O)CCC4(C)C3CCC21C (centres undefined) ) reads 98.7

###

experiment: NCI Yeast Anticancer Drug Screen. Data for the cln2 rad14 strain (AID 165);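 further: 0% = growth equal to vehicle treated cultures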; details: S. cerevisiae cln2 rad14 strain, at 50.0 µM (retest, dose inferred, filed as 5.0), hits give high values
The panel holds about 79,000 compounds, 15% with a hit somewhere; the sample as a whole holds those more often.
Would you mind sorting the entries by growth inhibition according to these classes? L = under 20%, M = from 20% up to 90%, H = 90% and over

Exercise: // return the class label for c1cc(NC2CCCCC2)ccc1CN1CCOCC1
Solution: M

Exercise: Pick a category. Item: CCCCCCCCCCCCCCCCNC(=S)N/C=C(/C#N)C(=O)OC
Solution: H

Exercise: Exam item: assign CCC[CH2][Sn]1([CH2]CCC)[O]C(=O)CN=Cc2c(ccc3ccccc23)[O]1 to the correct category.
Solution: M

Exercise: Which band does Cc1cc(NS(=O)(=O)c2ccc(Nc3c4ccccc4nc4c(C(=O)NC(CO)(CO)CO)cccc34)cc2)no1 fall in?
Solution: L

Exercise: Band assignment needed for CNC(=S)N/N=C/c1nccc(-c2ccccc2)c1C please.
Solution: H

Exercise: State the band of O=C(O/N=C1/CCCC/C1=C\c1ccccc1)c1ccccc1
Solution: H

Exercise: Classify this compound: O=C([O-])c1ccc([I+]c2ccccc2)cc1
Solution: M

Exercise: # classify by growth inhibition band: COc1cccc(C2c3cc4c(cc3OC(Nc3ccccc3)C2C)OCO4)c1O (centres undefined)
Solution: H

Exercise: Band for O=c1cc(-c2ccccc2)[nH]c2ccc(N3CCCC3)cc12 ?
Solution: L

Exercise: The entry to classify is COc1ccc(C(=O)Nc2ccc(O)c(=O)cc2)cc1 ; which class holds it?
Solution: L

Exercise: Which growth inhibition band matches COc1cc2c(ccc3cc4cccc[n+]4cc32)c(Br)c1OC ?
Solution: L

Exercise: Which growth inhibition category applies to COc1ccc(/C=C(\C#N)c2ccccc2)cc1OC here?
Solution: M

Exercise: Band for CCCCCCCCCCCCCC(=O)N1CCOCC1 ?
Solution: H

Exercise: Bin? Oc1ccccc1C(c1ccccc1O)C(Cl)(Cl)Cl
Solution: H

Exercise: Where would COc1cccc(N2C(=O)C3CC(CC(C)(C)C)c4c([nH]c5ccccc45)C3C2=O)c1 (centres undefined) land among the classes by reported growth inhibition?
Solution: M

Exercise: Which bin, given its growth inhibition, does CC(=O)NC1=C(Oc2ccccc2)C(=O)c2ccccc2C1=O occupy?
Solution: H

Exercise: For CN(C)CCC(/C=C/c1ccccc1)=N\Nc1c(F)c(F)c(F)c(F)c1F , which growth inhibition bin applies?
Solution: L

Exercise: Which bin should I file CCCCCC(CO)C(O)(C(F)(F)F)C(F)(F)F (centres undefined) under?
Solution: L

Exercise: Textbook exercise: identify the category of the compound given here, O=C1NN(C2=NNC3(C(=O)N2)c2ccccc2-c2ccccc23)C(c2ccccc2)=N/C1=C/c1ccc(O)cc1 , according to its measured value.
Solution: M

Exercise: Into which category would you place Clc1ccc2c(NCCCCCCNc3ccnc4cc(Cl)ccc34)ccnc2c1 ?
Solution: M

Exercise: Categorize the following entry: NC1=CC(=O)c2ccccc2C1=O
Solution: M

Exercise: The entry to classify is CCCCCC(=O)/C=C/c1ccc(C)cc1 ; which class holds it?
Solution: L

Exercise: Field: class (growth inhibition) — entry: O/N=C/c1cc(Cl)cc(Cl)c1O
Solution: H
